Just for reference, the RepoRT retention time repository (doi:10.1038/s41597-019-0305-1) is where these values come from.

# protocolDetails: RP, Waters SunFire C18, 50 × 4.6 mm, 3.5 µm, 0.5 mL/min, estimated dead time 1.1 min; A: water + 0.1% formic acid; B: acetonitrile + 0.1% formic acid; gradient (min/%B) 0/5 7/100 8/100
# conditionDescription: stereoisomer not certain
Would you mind labelling by LC retention time? At or over 6 min is true, under is false.

Some solved entries appear below for comparison.
CCCCCc1cc(O)cc(OC)c1C(=O)Oc1c(O)cc(CCCCC)c(C(=O)O)c1O
true
CCC(C)CC(C)C(O)C(C)C(=O)OC(C(C)CC(C)CC)C(C)C(=O)O (centres undefined)
true
O=C1C(O)=C(c2ccccc2)C(=O)C(O)=C1c1ccccc1
false
CCCCCc1cc(OC)cc(O)c1C(=O)O
true
Cc1cc(O)c(C=O)c2c1C(=O)Oc1c(COC(=O)CCC(=O)O)c(O)c(C(=O)O)c(C)c1O2
true
Cc1cc(O)c2c(c1)oc1cc(O)cc(C)c12
true

Is it the case that CCCc1cc(O)cc(O)c1 has LC retention time reaching or exceeding 6 min? false

Is it the case that CCCCCc1cc(OC)cc(O)c1C(=O)Oc1cc(O)c(C(=O)O)c(CCC)c1 has LC retention time reaching or exceeding 6 min? true

###

# protocolDetails: RP, Waters SunFire C18, 50 × 4.6 mm, 3.5 µm, 0.5 mL/min, estimated dead time 1.1 min; A: water + 0.1% formic acid; B: acetonitrile + 0.1% formic acid; gradient (min/%B) 0/5 7/100 8/100
# conditionDescription: stereoisomer not certain
propertyLabel: LC retention time (min)
Note: unit min is implicit; provide only the numeric part.

# annotated cases, reported LC retention time shown
COc1cc(C(=O)O)c2c(c1C)OC(=O)c1c(C)cc(O)c(C=O)c1O2
5.08
CCCCCc1cc(O)c(OC(=O)c2c(CCC)cc(OC)cc2OC)c(O)c1C(=O)O
6.84
CCCCCc1cc(OC(=O)c2c(CCCCC)cc(O)cc2OC)cc(OC)c1C(=O)O
6.6
CCCCCc1c(Oc2cc(OC)cc3c2C(=O)OC3(O)CCCC)c(O)cc(O)c1C(=O)O (stereo not given)
5.81

Turning to the following compound.
If you can, please state the reported LC retention time value of COc1cc(C)c(C(=O)O)c(O)c1C . 5.09

###

# protocolDetails: RP, Waters SunFire C18, 50 × 4.6 mm, 3.5 µm, 0.5 mL/min, estimated dead time 1.1 min; A: water + 0.1% formic acid; B: acetonitrile + 0.1% formic acid; gradient (min/%B) 0/5 7/100 8/100
# conditionDescription: stereoisomer not certain
propertyLabel: LC retention time (min)
Note: unit min is implicit; provide only the numeric part.

CCCCCC(=O)Cc1cc(OC)c(O)c2c1C(=O)Oc1cc(O)c(C(=O)O)c(CCCCC)c1O2
6.95
CCCC(=O)Cc1cc(OC(=O)c2c(O)cc(OC)cc2CC(=O)CCC)cc(O)c1C(=O)O
6.92
CCCCCc1cc(OC(=O)c2c(O)cc(OC)cc2CC(=O)CCC)cc(O)c1C(=O)O
7.28
Cc1cc(O)c(C=O)c2c1C(=O)Oc1c(COC(=O)C=CC(=O)O)c(O)c(C(=O)O)c(C)c1O2
6.04
O=C(O)c1cc(O)c2c(c1)C(=O)c1cc(O)cc(O)c1C2=O
5.06
COC(=O)c1c(C)cc(O)c(C=O)c1O
5.48
CCCCCc1cc(O)cc(O)c1C(=O)O
5.24
CCCCCC1=CC(=O)C=C(OC)C12C(=O)Oc1cc(O)c(C(=O)O)c(CCCCC)c12 (centres undefined)
7.48

Turning to the following molecule.
If you can, please state the reported LC retention time value of CCC(C)C(NC(=O)c1ccccc1)C(=O)NC(COC(=O)c1ccccc1)C(C)C (centres undefined) . 6.25
